- Tested on: P388 leukemia ip, CD2F1 mice, survival T/C
- protocol-summary: NCI In Vivo Anticancer Drug Screen. Data for tumor model P388 Leukemia (intraperitoneal) in CD2F1 (CDF1) mice
- condition-context: endpoint: median survival time; dose: 50.0 mg/kg/injection; schedule: Q01DX005 (ip); vehicle: Klucel (hydroxypropylcellulose) (HPC); higher = longer survival
- Method: The antitumor activity of compounds was measured in mice bearing transplantable tumors. Survival or tumor size were measured and the results are expressed as the measurement made in the treated group (T) divided by the measurement made in the vehicle treated control group (C). The tumor model used in this assay is P388 Leukemia (intraperitoneal) in CD2F1 (CDF1) mice
Inconclusive results and toxic doses are left out.
Reported T/C is given for each of the following compounds.
assay-readout: T/C

[[record]]
compound = "COc1ccc(-c2cnnc3c(-c4cccc(C(F)(F)F)c4)cnn23)cc1"
assay_readout = "T/C"
result = "98 % of control"

[[record]]
compound = "CC(C)=CCc1c(C)cc2cc3c(c(O)c2c1O)C(O)=CC(=O)C3(CC=C(C)C)CC=C(CO)CO (stereo not given)"
assay_readout = "T/C"
result = "93 % of control"

[[record]]
compound = "CCCCCNc1ncnc2c(C)[nH]nc12"
assay_readout = "T/C"
result = "91 % of control"

[[record]]
compound = "Cc1cnc(Sc2ncccn2)c(C(=O)O)c1[N+](=O)[O-]"
assay_readout = "T/C"
result = "101 % of control"

[[record]]
compound = "O=C(CSC1CCc2ccccc21)N/N=C/c1ccccc1O (stereo not given)"
assay_readout = "T/C"
result = "96 % of control"


====

- Tested on: P388 leukemia ip, CD2F1 mice, survival T/C
- protocol-summary: NCI In Vivo Anticancer Drug Screen. Data for tumor model P388 Leukemia (intraperitoneal) in CD2F1 (CDF1) mice
- condition-context: endpoint: median survival time; dose: 25.0 mg/kg/injection; schedule: Q01DX005 (ip); vehicle: saline; higher = longer survival
Toxic doses and inconclusive results are not listed.
assay-readout: T/C

[[record]]
molecule = "CN=C(NC)NCCSCc1ccc2ccccc2n1"
assay_readout = "T/C"
result = "118 % of control"

[[record]]
molecule = "CCC(CC)NCCCNc1cc(OC)cc2cccnc12"
assay_readout = "T/C"
result = "104 % of control"

[[record]]
molecule = "CCN=C(N)Nc1nc(C)c2cc(Cl)ccc2n1"
assay_readout = "T/C"
result = "104 % of control"

[[record]]
molecule = "COc1cc(NC(C)CCCNC(C)C)c2ncccc2c1OC (centres undefined)"
assay_readout = "T/C"
result = "93 % of control"


====

- System: P388 leukemia ip, CD2F1 mice, survival T/C
- protocol-summary: NCI In Vivo Anticancer Drug Screen. Data for tumor model P388 Leukemia (intraperitoneal) in CD2F1 (CDF1) mice
- condition-context: endpoint: median survival time; dose: 12.5 mg/kg/injection; schedule: Q01DX005 (ip); vehicle: saline with Tween-80; higher = longer survival
Toxic doses and inconclusive results are not listed.
assay-readout: T/C

[[record]]
structure_smiles_string = "CC(C)(C)C1=CCN(C(C)(C)/C=N\\O)CC1"
assay_readout = "T/C"
result = "97 % of control"

[[record]]
structure_smiles_string = "COc1cc(N(C)c2cc(=O)n(C)c(=O)[nH]2)ccc1C"
assay_readout = "T/C"
result = "101 % of control"

[[record]]
structure_smiles_string = "Clc1ccc(-c2nnc(Nc3ccnc4cc(Cl)ccc34)s2)cc1"
assay_readout = "T/C"
result = "96 % of control"

[[record]]
structure_smiles_string = "CSc1ccc(N2C(N)=NC(N)=NC2(C)C)cc1"
assay_readout = "T/C"
result = "102 % of control"

[[record]]
structure_smiles_string = "COc1c(-c2ccc3c(c2)OCO3)oc2cc(O)cc(O)c2c1=O"
assay_readout = "T/C"
result = "100 % of control"

[[record]]
structure_smiles_string = "O=C1c2cccc3cccc(c23)C(=O)N1c1ncn[nH]1"
assay_readout = "T/C"
result = "86 % of control"

[[record]]
structure_smiles_string = "C[C@]12CC[C@@H]3c4ccc(O)c(N)c4CC[C@H]3[C@@H]1CC[C@@H]2O"
assay_readout = "T/C"
result = "93 % of control"

[[record]]
structure_smiles_string = "C/C(=N\\Nc1cc(C)c2ccccc2n1)c1ccccn1"
assay_readout = "T/C"
result = "103 % of control"


Data provenance is PubChem BioAssay AID330.
